B1: Osa-1-4 twister ribozyme (parent)
chain: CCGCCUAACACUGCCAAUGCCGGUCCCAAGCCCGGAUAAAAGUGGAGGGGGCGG

# Variants of: B1
# protocol text: self-cleavage, relative activity (ratio to wild type); higher = more cleavage; co-transcriptional
Consider the following variants; for each one, report its self-cleavage.

Query: If you can, please state the reported self-cleavage value of A38G C31A .
Response: 0.03

Query: If you can, please state the reported self-cleavage value of A7C U12G .
Response: 0.09

Query: If you can, please state the reported self-cleavage value of A17C A29U .
Response: 0.04

Query: If you can, please state the reported self-cleavage value of C25G C26U .
Response: 0.07

Query: If you can, please state the reported self-cleavage value of A28G G44A .
Response: 0.1

Query: If you can, please state the reported self-cleavage value of G19C G51U .
Response: 0.04

Query: If you can, please state the reported self-cleavage value of G23A G45C .
Response: 0.05

Query: If you can, please state the reported self-cleavage value of G35U U24A .
Response: 0.2

Query: If you can, please state the reported self-cleavage value of A38G G22A .
Response: 1.01

Query: If you can, please state the reported self-cleavage value of C20G G30U .
Response: 0.02

Query: If you can, please state the reported self-cleavage value of A8C G48U .
Response: 0.03
